read-out: Matrix Metallopeptidase 9 (MMP9), MMP9 (gene 4318); assay: BSK_KF3CT_MMP9: BioMAP Diversity Plus: KF3CT Assay for Matrix Metallopeptidase 9 (MMP9) Biomarker Activity (AID 2283074); details: primary human keratinocytes with fibroblasts; actives raise or lower the signal
The source made the active and inactive calls. The calls were made as follows: active = hit-call score of the fitted dose curve at least 0.9, where 1 is the maximum; inactive = score below 0.9.
Classes used: active, inactive

INSERT INTO results (molecule, class_assignment) VALUES
  ('CCc1nn(C2CCCCC2)c2cc(C3(C#N)CCC(C(=O)O)CC3)ccc12 (configuration not stated)', 'active'),
  ('CC(=O)CC(C)(C)O', 'inactive'),
  ('Cc1cc(CCN2CCN(c3nsc4ccccc34)CC2)cc2c1NC(=O)CC2(C)C', 'active'),
  ('NCC(F)(F)C(F)(F)C(F)(F)C(F)(F)C(F)(F)C(F)(F)C(F)(F)F', 'inactive'),
  ('COCC(C)OCC(C)O (configuration not stated)', 'inactive'),
  ('CCCCCCCCC(=O)O', 'inactive'),
  ('CCC(C)(C)C1CCC(O)CC1 (configuration not stated)', 'inactive');

---

experiment: Tanguay_ZF_120hpf_BRAI_legacy: (Legacy) Oregon State University Tanguay Lab 120 Hour Post-fertilization zebrafish Assay for Brain Malformation (AID 2283641)
Records with an inconclusive call do not appear. Activity calls are given as the source filed them. Rule for the calls: active = hit-call score of the fitted dose curve at least 0.9, where 1 is the maximum; inconclusive = response in the unintended direction; inactive = score below 0.9.
Labels: 1 = active, 0 = inactive

INSERT INTO measurements (compound, class_assignment) VALUES
  ('CCCOC(=O)c1ccc(O)cc1', 1),
  ('ClC1=C(Cl)C(Cl)(Cl)C(Cl)=C1Cl', 0),
  ('CN1CCN(c2ccccc2/C=C2\SCCN(c3ccc(Cl)c(Cl)c3)C2=O)CC1', 0),
  ('CC[C@H](C)[C@@H](C(=O)O)n1sc2ccccc2c1=O', 0),
  ('OCCC(F)(F)C(F)(F)C(F)(F)C(F)(F)C(F)(F)C(F)(F)F', 0),
  ('CCCCC(CC)COC(=O)CCCCC(=O)OCc1ccccc1 (centres undefined)', 0),
  ('CCCOc1sc(C(=O)N2CCC(c3cc(CN)ccc3F)CC2)c(C)c1Br', 0),
  ('CCC(C)(C)C1CCC(O)CC1 (centres undefined)', 0),
  ('Nc1cccc2c(N)cccc12', 0),
  ('CCOC(=O)CC(O)(CC(=O)OCC)C(=O)OCC', 0),
  ('CC(O)CO (centres undefined)', 0),
  ('c1ccc2c(c1)ccc1ccccc12', 0),
  ('CCCCCCCC(=O)O', 0),
  ('CN(C)C=O', 0);

---

target: Bile acid receptor (Homo sapiens) (UniProt Q96RI1); assay: OT_FXR_FXRSRC1_0480: Odyssey Thera (OT) 8-hour HEK293T Protein-Complementation Assay for Farnesoid X receptor/SRC-1 Co-activator (AID 2283383)
Sequence (Q96RI1 whole entry, looked up): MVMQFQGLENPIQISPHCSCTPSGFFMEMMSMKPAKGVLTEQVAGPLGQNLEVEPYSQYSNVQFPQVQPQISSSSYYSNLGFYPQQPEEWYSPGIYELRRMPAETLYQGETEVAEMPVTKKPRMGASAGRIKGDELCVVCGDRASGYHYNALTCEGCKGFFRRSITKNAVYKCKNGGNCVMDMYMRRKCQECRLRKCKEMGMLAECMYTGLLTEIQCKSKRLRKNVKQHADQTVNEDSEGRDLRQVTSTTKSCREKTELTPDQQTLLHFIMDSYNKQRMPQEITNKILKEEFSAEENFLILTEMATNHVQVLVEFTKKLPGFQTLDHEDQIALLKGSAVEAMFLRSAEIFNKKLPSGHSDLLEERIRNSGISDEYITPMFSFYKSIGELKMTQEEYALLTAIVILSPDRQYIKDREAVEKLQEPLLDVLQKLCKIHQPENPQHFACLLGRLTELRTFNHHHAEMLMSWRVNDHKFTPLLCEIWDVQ
Records with an inconclusive call do not appear. Calls of active or inactive are those of the source. The calls were made as follows: active = hit-call score of the fitted dose curve at least 0.9, where 1 is the maximum; inconclusive = response in the unintended direction; inactive = score below 0.9.
measurement-name: AC50

INSERT INTO assay_data (compound, assayed_target, recorded_result) VALUES
  ('OCCC(F)(F)C(F)(F)C(F)(F)C(F)(F)C(F)(F)C(F)(F)F', 'Bile acid receptor (Homo sapiens) (UniProt Q96RI1)', 'inactive'),
  ('CCCCCCC(=O)O', 'Bile acid receptor (Homo sapiens) (UniProt Q96RI1)', 'inactive'),
  ('O=C1OC2(c3ccccc31)c1cc(Br)c(O)c(Br)c1Oc1c2cc(Br)c(O)c1Br', 'Bile acid receptor (Homo sapiens) (UniProt Q96RI1)', 'inactive'),
  ('CCCCCCCCCCCCCCCS(=O)(=O)Oc1ccccc1', 'Bile acid receptor (Homo sapiens) (UniProt Q96RI1)', 'inactive'),
  ('CC(=O)NC1(c2cccc(F)c2)CCN(CC[C@@]2(c3ccc(Cl)c(Cl)c3)CN(c3ccccc3)C(=O)CO2)CC1', 'Bile acid receptor (Homo sapiens) (UniProt Q96RI1)', '9.52 µM (active)'),
  ('CCCCC(CC)COC(=O)CCCCC(=O)OCC(CC)CCCC (stereo unspecified)', 'Bile acid receptor (Homo sapiens) (UniProt Q96RI1)', 'inactive'),
  ('NC(=O)N1C(=O)C(C(=O)c2cc(Cl)cs2)c2cc(F)c(Cl)cc21 (stereo unspecified)', 'Bile acid receptor (Homo sapiens) (UniProt Q96RI1)', 'inactive'),
  ('CCc1nn(C2CCCCC2)c2cc(C3(C#N)CCC(C(=O)O)CC3)ccc12 (stereo unspecified)', 'Bile acid receptor (Homo sapiens) (UniProt Q96RI1)', '23.6 µM (active)'),
  ('O=C(OCCOCCOC(=O)c1ccccc1)c1ccccc1', 'Bile acid receptor (Homo sapiens) (UniProt Q96RI1)', 'inactive'),
  ('CCCCCCCCCCCCc1ccccc1S(=O)(=O)O', 'Bile acid receptor (Homo sapiens) (UniProt Q96RI1)', '92.9 µM (active)'),
  ('CC(C)(C)c1cccc(C(C)(C)C)c1O', 'Bile acid receptor (Homo sapiens) (UniProt Q96RI1)', '78.7 µM (active)'),
  ('CC(C)(C)c1cc(C(C)(C)C)c(O)c(C(C)(C)C)c1', 'Bile acid receptor (Homo sapiens) (UniProt Q96RI1)', '81.1 µM (active)'),
  ('CC(O)CO (stereo unspecified)', 'Bile acid receptor (Homo sapiens) (UniProt Q96RI1)', 'inactive'),
  ('CC(C)CCCCCCOC(=O)CCCCC(=O)OCCCCCCC(C)C', 'Bile acid receptor (Homo sapiens) (UniProt Q96RI1)', 'inactive'),
  ('CC(=O)CC(C)(C)O', 'Bile acid receptor (Homo sapiens) (UniProt Q96RI1)', 'inactive'),
  ('c1ccc2c(c1)ccc1ccccc12', 'Bile acid receptor (Homo sapiens) (UniProt Q96RI1)', 'inactive'),
  ('NC(=O)N(O)[C@@H]1C=C[C@H](Oc2cccc(Oc3ccc(F)cc3)c2)C1', 'Bile acid receptor (Homo sapiens) (UniProt Q96RI1)', 'inactive'),
  ('CCCOC(=O)c1ccc(O)cc1', 'Bile acid receptor (Homo sapiens) (UniProt Q96RI1)', 'inactive'),
  ('CC[C@H](C)[C@@H](C(=O)O)n1sc2ccccc2c1=O', 'Bile acid receptor (Homo sapiens) (UniProt Q96RI1)', 'inactive'),
  ('CCN(CC)CCNc1ccc(CNC=O)c2sc3ccc(OC)cc3c(=O)c12', 'Bile acid receptor (Homo sapiens) (UniProt Q96RI1)', '11.6 µM (active)'),
  ('CN(C)C=O', 'Bile acid receptor (Homo sapiens) (UniProt Q96RI1)', 'inactive'),
  ('Cc1cc(C)c(O)c(C)c1', 'Bile acid receptor (Homo sapiens) (UniProt Q96RI1)', 'inactive'),
  ('COc1ccc([N+](=O)[O-])cc1N', 'Bile acid receptor (Homo sapiens) (UniProt Q96RI1)', 'inactive'),
  ('c1ccc2cc3c(ccc4ccccc43)cc2c1', 'Bile acid receptor (Homo sapiens) (UniProt Q96RI1)', 'inactive'),
  ('CCCCOCCO', 'Bile acid receptor (Homo sapiens) (UniProt Q96RI1)', 'inactive'),
  ('CC(C)(C)CC(C)(C)c1ccc(O)c(-n2nc3ccccc3n2)c1', 'Bile acid receptor (Homo sapiens) (UniProt Q96RI1)', '35.7 µM (active)');

---

biological target: Muscarinic acetylcholine receptor M5 (Homo sapiens); experiment: NVS_GPCR_hM5: NovaScreen (NVS) G Protein-Coupled Receptor Assay for human Muscarinic, M5 Receptor (AID 2283275)
Activity calls are given as the source filed them. How the source made its calls: active means hit-call score of the fitted dose curve at least 0.9, where 1 is the maximum; inconclusive means response in the unintended direction; inactive means score below 0.9.
Outcomes: active, inactive

INSERT INTO assay_data (sample_smiles, class_assignment) VALUES
  ('CC(=O)NC1(c2cccc(F)c2)CCN(CC[C@@]2(c3ccc(Cl)c(Cl)c3)CN(c3ccccc3)C(=O)CO2)CC1', 'active'),
  ('CCC(=C(c1ccc(O)cc1)c1ccc(OCCN(C)C)cc1)c1ccccc1', 'active'),
  ('O=C(OCCOCCOC(=O)c1ccccc1)c1ccccc1', 'inactive'),
  ('NC(=O)N(O)[C@@H]1C=C[C@H](Oc2cccc(Oc3ccc(F)cc3)c2)C1', 'inactive'),
  ('CN1CCC[C@H]1c1cccnc1', 'inactive');

---

experiment: ATG_NRF2_ARE_CIS: Attagene CIS-FACTORIAL HepG2 Assay for human Nuclear Factor Erythroid 2 Related Factor 2 (NFR2) response to Antioxidant Response Elements (ARE) (AID 2282992); conditions: HepG2 Attagene ARE/NRF2 reporter, transcription factor activity; actives raise or lower the signal
Calls of active or inactive are those of the source. Rule for the calls: active = hit-call score of the fitted dose curve at least 0.9, where 1 is the maximum; inactive = score below 0.9.
Outcome codes: active, inactive

INSERT INTO results (molecule, class_assignment) VALUES
  ('O=C(O)c1ccccc1C(c1ccc(O)cc1)c1ccc(O)cc1', 'inactive'),
  ('COCC(C)O (stereo not drawn)', 'inactive'),
  ('COc1ccc([N+](=O)[O-])cc1N', 'inactive'),
  ('Cc1cc(CCN2CCN(c3nsc4ccccc34)CC2)cc2c1NC(=O)CC2(C)C', 'active'),
  ('CCCCCCCCCCCCN1CCCC1=O', 'inactive'),
  ('Cc1cc(C)c(O)c(C)c1', 'active'),
  ('CCCCC[C@H](O)CC(=O)CCc1ccc(O)c(OC)c1', 'active'),
  ('CC[C@H](C)[C@@H](C(=O)O)n1sc2ccccc2c1=O', 'active'),
  ('NCC(F)(F)C(F)(F)C(F)(F)C(F)(F)C(F)(F)C(F)(F)C(F)(F)F', 'inactive'),
  ('CC(C)CCCCCCOC(=O)CCCCC(=O)OCCCCCCC(C)C', 'inactive'),
  ('Cc1ccc(S(=O)(=O)O)c(C)c1', 'inactive'),
  ('CCN(CC)CCNc1ccc(CNC=O)c2sc3ccc(OC)cc3c(=O)c12', 'active'),
  ('O=C(/C=C/c1ccc(O)cc1)CC(=O)/C=C/c1ccc(O)cc1', 'active');
